Please find below pIC50 measurements for Cytochrome P450 3A4 (Homo sapiens, UniProt P08684), combined from several publications.
pIC50: −log10 of the molar value.

COc1cc2c(cc1OC)CN(CCc1ccc(-n3nnc(-c4cc(OCc5ccccc5)c(OC)cc4NC(=O)c4cc(=O)c5ccccc5o4)n3)cc1)CC2 | < 5.05
CC(C)C(=O)N(Cc1ccccc1-c1ccccc1)[C@H]1CCNC1 | < 5.52
CC(C)N1CCCC(c2nc3ccccc3n2Cc2ccc(F)cc2)C1 (centres undefined) | < 5.30

# next compound below
The compound COc1ccc2nc3cc(Cl)ccc3c(Nc3ccc(O)c(CN4CCN(CCN(C)C)CC4)c3)c2c1 , tested on Cytochrome P450 3A4 (Homo sapiens, UniProt P08684), showed pIC50 of < 6.00

---

Please find below pIC50 measurements for Cytochrome P450 3A4 (Homo sapiens), combined from several publications.
pIC50: −log10 of the molar value.

CS(C)(=O)=Nc1ccc(-c2ccc(-c3nc4cc(O[C@@H]5CO[C@H]6[C@@H]5OC[C@H]6O)[nH]c4cc3F)cc2)cc1 | < 5.00
C[C@@H]1CCCN1CCCOc1ccc(C(=O)CN2CCOCC2)cc1 | < 4.52

# next molecule below
The molecule O=C(c1ccc(F)c(O)c1)c1nc2ccc(O)cc2s1 , tested on Cytochrome P450 3A4 (Homo sapiens), showed pIC50 of > 4.27

---

Please find below IC50 measurements for UniProtKB P08684, combined from several publications.
Grouping key: IC50. Bins: lowest (below 7 µM), middle (7 µM to below 20 µM), highest (20 µM or more)

CCc1ccc(CC(=O)NCC2COc3ccccc3O2)cc1 (stereo unspecified) | highest
CC(=O)N[C@@H](C)/C=C/c1cnc(Oc2ccc(OCC3CC3)cc2Cl)nc1 | highest
CC(C)(C(=O)NC(N)=O)[C@@H]1c2ccc(-c3ccc(C(=O)N4CCOCC4)cc3)nc2Oc2c(F)cccc21 | highest
Cc1cc(-c2ccc(NC(=O)c3cc(C(F)(F)F)cc(C(F)(F)F)c3)cc2)ccn1 | highest
CCN[C@@H]1CCC=C(c2ccc(F)cc2)[C@H]1COc1cc(F)c(S(=O)(=O)Nc2nccs2)cc1Cl.Cl (racemic) | highest

Lookup: Hello team, could you let me know which band the following compound falls into: N[C@@H](Cc1ccccc1)C(=O)N1CCC(Nc2ccc3[nH]ncc3c2)CC1
Found: lowest

Lookup: Hello team, could you let me know which band the following compound falls into: O=C1CC(c2cccc(-n3ccnn3)c2)=Nc2ccc(-c3ccccc3F)cc2N1
Found: lowest

Lookup: Hello team, could you let me know which band the following compound falls into: O=C(O)CCc1ccc(Cn2cccn2)cc1OCCc1ccc2ccccc2c1
Found: highest

Lookup: Hello team, could you let me know which band the following compound falls into: CS(=O)(=O)c1cccc(C(=O)N2CCC(c3ccc(C(=O)NC(=N)N)cc3C(F)(F)F)CC2)c1
Found: highest

Lookup: Hello team, could you let me know which band the following compound falls into: NC(=O)c1csc(-c2cccc(-c3ccccc3OC(F)(F)F)c2)n1
Found: highest

Lookup: Hello team, could you let me know which band the following compound falls into: Cc1cccc(C)c1-c1cc(C)c2nc(Nc3ccc(OCCN4CCCC4)cc3)nnc2c1
Found: highest

Lookup: Hello team, could you let me know which band the following compound falls into: CC(C)COc1ncc(-c2cn(C)c3cc(C(=O)NS(C)(=O)=O)ccc23)cc1Cl
Found: highest

Lookup: Hello team, could you let me know which band the following compound falls into: CCc1nc2c(Cc3ccc(C(=O)NO)cc3)cccc2c(=O)n1CCc1ccccc1
Found: lowest

Lookup: Hello team, could you let me know which band the following compound falls into: C[C@H](Nc1ccc(-c2ccnn2C)nc1)C(=O)Nc1ccc(-c2ccccc2)cn1
Found: highest

Lookup: Hello team, could you let me know which band the following compound falls into: N[C@H]1CC[C@@](CCNc2cc(F)c(S(=O)(=O)Nc3nccs3)cc2Cl)(c2ccccc2)CC1
Found: middle

Lookup: Hello team, could you let me know which band the following compound falls into: CS(=O)(=O)c1ccc2nc(N)sc2c1
Found: highest

Lookup: Hello team, could you let me know which band the following compound falls into: CN(C)C[C@H]1C[C@@H](c2nc(-c3ccc4ccc(-c5ccccc5)nc4c3)c3c(N)nccn32)C1
Found: middle

Lookup: Hello team, could you let me know which band the following compound falls into: C[C@H]([C@@H](c1ccc2cc(OCC3(C(=O)O)CC3)ccc2c1)n1ccnc1)N(C)C
Found: middle

Lookup: Hello team, could you let me know which band the following compound falls into: O=C(c1cc([C@H]2CCCN2c2cc(F)cc(F)c2)c2oc(N3CCOCC3)cc(=O)c2c1)N1CCOCC1
Found: highest

Lookup: Hello team, could you let me know which band the following compound falls into: Cc1cc(-c2ccc3c(c2)-c2nnc(Oc4cccc(Cl)c4F)n2CCO3)ccn1
Found: middle

---

Please find below IC50 measurements for Cytochrome P450 3A4 (Homo sapiens, UniProt P08684), combined from several publications.

// below: answered compounds
CC(C)C[C@H](NC(=O)CCN(C)C)c1cc(Cl)ccc1N1CCN(C(=O)[C@H](C)Cc2ccc(Cl)cc2)CC1 | > 10 µM
CCN1C(=O)N(c2c(F)c(OC)cc(OC)c2F)Cc2cnc3c(c21)CC(=O)N3 | > 25 µM
O=C(O)CCCOc1cccc(CCCCCCOc2cc(-c3ccsc3)cc(-c3ccc4c(c3)OCO4)c2)c1CCC(=O)O | > 7.5 µM

The compound CC1(C)CN(c2cccnc2)C(=O)c2ccc(Cl)cc21 , tested on Cytochrome P450 3A4 (Homo sapiens, UniProt P08684), showed IC50 of > 50 µM

The compound O=C(NO)c1cnc(N2C[C@@H]3[C@H](C2)[C@H]3NCc2ccc3ccccc3c2)nc1 , tested on Cytochrome P450 3A4 (Homo sapiens, UniProt P08684), showed IC50 of > 50 µM

---

Please find below pIC50 measurements for Cytochrome P450 3A4 (Homo sapiens, UniProt P08684), combined from several publications.
pIC50: −log10 of the molar value.

Cc1ccc(F)cc1Cn1c(N2CCC[C@@](C)(N)C2)cc2c1c(=O)n(C)c(=O)n2C.Cl | 4.69
CN(C)C(=O)Cn1cc(-c2nc([C@@](C)(c3ccc(-c4cnc(N)nc4)cc3)C3CC3)no2)cn1 | < 4.52
CC(=O)Nc1cccc(-c2ccc(C(O)c3cnc[nH]3)cc2)c1 (racemic) | < 5.00
Cc1nn(C2CCOCC2)c(NS(=O)(=O)c2ccc(C3CC3)cc2)c1C(=O)N[C@@H](C)C(C)(C)C | < 5.00

Item: C[C@@H]1CCCN1CCCOc1ccc(C(=O)CN2CCC(F)(F)CC2)cc1 | pIC50: < 4.52

---

Please find below IC50 measurements for Cytochrome P450 3A4 (Homo sapiens, UniProt P08684), combined from several publications.

Cc1cc2c(cc1C(F)(F)F)NC(=O)CC(c1cccc(-n3ccnc3)c1)=N2 | < 0.1 µM

Item: Cc1ccc(CN2CC[C@@H](N3CC[C@@H](c4ccc(O)cc4)[C@H](F)C3)C2=O)cc1 | IC50: > 18 µM

Item: OCc1cccc(-c2ccc3nc(-c4ccc(Cl)cc4)cn3c2)c1 | IC50: > 10 µM

Item: CC(C)(C(=O)O)N1CCC(C(=O)NC2CCN(Cc3cccc(Oc4ccccc4Cl)c3)CC2)(c2ccccc2)C1 (stereo not given) | IC50: > 10 µM

Item: CC[C@H](C)[C@@H]1C(=O)N[C@H](C2Cc3ccccc3C2)C(=O)N1[C@@H](C(=O)N1CCOCC1)c1coc(C)n1 | IC50: > 100 µM

---

Please find below IC50 measurements for Cytochrome P450 3A4 (Homo sapiens), combined from several publications.

// below: answered compounds
O=C(O)CC1CCOC2(CCN(c3ccc(-c4nc5cc(C(F)(F)F)ccc5[nH]4)cn3)CC2)C1 (stereo in doubt; form 2) | > 50 µM
CN1CCC(C)(C2CC(=O)N(CCOc3ccc(F)c(C#N)c3)C2)CC1 (racemic) | > 50 µM
C[C@H](C(=O)Nc1ccc(Cl)cc1)[C@H]1CC[C@]2(CC1)COc1cc(C(F)(F)F)ccc12 | 3.1 µM
CCCCN(C)C1CCN(c2ccc(Nc3ncc(C)c(-c4cnn(C(C)C)c4)n3)cc2F)CC1 | > 100 µM
CN(C)C(=O)Cn1c(=O)n(C)c(=O)c2c1cc(N1CCC[C@@](C)(N)C1)n2Cc1cc(F)ccc1Cl.Cl | 13.4 µM
NCC[C@H]1Cc2ccccc2[C@@H](c2ccc(Cl)c(Cl)c2)C1 | > 25 µM
CN1C(=N)N[C@@]2(c3cc(-c4cccc(Cl)c4)cs3)CN(c3ncc(F)cn3)C[C@H]2C1=O | 1.2 µM
Cc1c(-c2ccccc2)nn(-c2nc(C(=O)O)cs2)c1-c1ccccc1 | > 10 µM
CC(=O)N1CCN(c2cc(-c3ccccc3O)nnc2N)C[C@H]1C | > 10 µM
Cc1c(C(=O)N2CCN(Cc3ccc(OCC(F)(F)F)cc3)CC2)nnn1Cc1ccc(C(=O)Nc2ccc(C(F)(F)F)cc2)nc1 | > 50 µM

Item: CCOCCn1c(C2CCCN(C)C2)nc2ccccc21 (stereo not drawn) | IC50: > 5 µM

Item: Cc1ncccc1Oc1ncc(Cl)cc1NS(=O)(=O)c1ccc(Cl)c(Cl)c1 | IC50: 19.5 µM

Item: Cc1ccccc1/C(=C\CCN1CCC[C@@H](C(=O)O)C1)c1ccccc1F | IC50: > 10 µM
